target-desc: the molecule itself
experiment-description: SEC-SAXS; variants in GDAP1Δ303–358; 100 μl at 1.7–36 mg/ml (maximum concentration for each variant) injected onto a BioSEC3-300 column, 25 mM HEPES pH 7.5, 300 mM NaCl, +15°C; top of the peak analysed
assay-endpoint: stoichiometry N
Please reply with the number alone, leaving off any unit.

# protein GDAP1Δ303–358 R282H (domain or fragment, human, UniProt Q8TB36-1 1-302, looked up, human GDAP1 lacking residues 303-358 (GDAP1Δ303–358) with the CMT-linked mutation R282H; CMT disease variant; source: E. coli BL21(DE3), autoinduction, purified (Ni-NTA, TEV cleavage, reverse Ni-NTA, SEC); not shown: His6, N-terminal, cleaved) MAERQEEQRGSPPLRAEGKADAEVKLILYHWTHSFSSQKVRLVIAEKALKCEEHDVSLPLSEHNEPWFMRLNSTGEVPVLIHGENIICEATQIIDYLEQTFLDERTPRLMPDKESMYYPRVQHYRELLDSLPMDAYTHGCILHPELTVDSMIPAYATTRIRSQIGNTESELKKLAEENPDLQEAYIAKQKRLKSKLLDHDNVKYLKKILDELEKVLDQVETELQRRNEETPEEGQQPWLCGESFTLADVSLAVTLHRLKFLGFARRNWGNGKRPNLETYYEHVLKRKTFNKVLGHVNNILIS ; its stoichiometry N = 2

Data provenance: paper PMC10104300
